Below are IC50 values recorded for Tubulin beta chain (Bos taurus).

## Task Fill in: IC50 of COc1cc(/C=C\c2ccc3ccccc3c2)ccc1F is ___
## Result > 30 µM

## Task Given COc1cc(/C=C\c2ccc3c(ccn3C)c2)cc(OC)c1OC , state its recorded IC50.
## Result 2 µM

## Task Query (molecule): COc1cc(/C=C/c2ccc3c(c2)c2ccccc2n3C)cc(OC)c1OC ; field requested: IC50
## Result > 30 µM

## Task Fill blank: measured IC50 of the molecule COc1cc(/C=C\c2ccc3ccccc3c2)cc(OC)c1OC is ____.
## Result 10 µM

## Task Could you share which IC50 value was measured for COc1cccc(/C=C\c2ccc3ccccc3c2)c1 ?
## Result > 30 µM

## Task Name the recorded IC50 for COc1cc(/C=C/c2ccc3[nH]ccc3c2)cc(OC)c1OC .
## Result > 30 µM
